TGI listing for selected molecules.
system: TK-10 renal; assay: NCI tumour cell line growth inhibition, 48 h

Examples with their reported TGI follow.
CC[C@@H](C)/C=C(C)/C=C/C(=O)c1c(O)c(-c2ccc(O)cc2)cn(O)c1=O :: 15.3 µM
CO[C@H]1CC(O[C@@H]2/C(C)=C/C[C@@H]3C[C@@H](C[C@]4(CC[C@H](C)[C@@H](C5CCCCC5)O4)O3)OC(=O)[C@@H]3C=C(C)/C(=N/O)[C@H]4OC/C(=C\C=C\[C@@H]2C)[C@]43O)O[C@@H](C)C1O (stereo partly drawn) :: 2.71 µM
COc1cc2c(c(OC)c1OC)-c1ccc(SC)c(=O)cc1[C@@H](O)CC2 :: > 100 µM
O=[S@]1c2ccc3ccccc3c2N[C@@H]2[C@H]1[C@H]1C=C[C@@H]2C1 :: > 100 µM
COC(=O)c1cc(NC(=O)Cc2c[nH]c3ccccc23)cn1C :: > 100 µM
N#Cc1cnc(Nc2cc(NC[C@H]3CNCCO3)c(C(F)(F)F)cn2)cn1 :: 36 µM
Cc1c(CCCl)c(N=P(c2ccccc2)(c2ccccc2)c2ccccc2)n2c(nc3ccccc32)c1C#N :: > 10 µM

Alright, here's another molecule for you.
Which TGI is reported with TK-10 renal for this entry: O=C(c1ccccc1)N1CCC(CC2(c3cc4ccccc4[nH]3)OCCO2)CC1 ? > 100 µM

###

tested on: BT-549 breast; test: NCI tumour cell line growth inhibition, 48 h
ENDPOINT LABEL: TGI (µM)
Dear colleague, please return just the value in µM, with no unit written.

Cc1cc(C)c(-c2c(N)cc(Br)cc2Br)c(N)c1 :: 18.2
C/C(=C(\c1ccc(OCCN2CCCCCC2)cc1)c1ccc(OC(=O)c2ccccc2)cc1)c1ccc(Cl)cc1 :: 8.99
CN(CCCNC(=O)c1cn(C)c2c1Cc1ccccc1-2)CCCNC(=O)c1cn(C)c2c1Cc1ccccc1-2 :: 39.2

Next, consider the following molecule.
Return TGI measured with BT-549 breast given this molecule: CC(C)=CCCC(C)CCOS(=O)C(F)(F)F (centres undefined) 77.8

###

# GI50 values compiled below
test system: SK-MEL-5 melanoma; experiment: NCI tumour cell line growth inhibition, 48 h

// GI50 lookup, key: CCNC(=O)Oc1ccc(/C(=C(/C)Cc2ccc(OC)cc2)c2ccc(OCCN(CC)CC)cc2)cc1 1.55 µM

Which GI50 reading was recorded for the molecule N#Cc1cnc(Nc2cc(NC[C@H]3CNCCO3)c(C(F)(F)F)cn2)cn1 ? 9.3 µM

// GI50 lookup, key: CCN(Cc1cccc(Cl)c1)c1ccc(CO)c(Cl)c1 5.73 µM

What GI50 value was documented for this molecule, CC1NC(=O)C2=C1C(=O)NC(=O)C2 (stereo unspecified) ? > 100 µM

What measured GI50 goes with C#CCN(c1ccc(C(=O)N[C@@H](CCC(=O)N[C@H](CCC(=O)O)C(=O)O)C(=O)O)cc1)C1CCc2cc3nc(CO)[nH]c(=O)c3cc21 (stereo partly specified) ? 10 µM

Look up GI50: Cn1c2c(c3c(Cl)nncc31)Cc1ccccc1-2 10.3 µM

###

tested on: U251 CNS; assay: NCI tumour cell line growth inhibition, 48 h
Measured TGI by item

CC(=O)[C@H]1CCC/C=C/[C@@H]2C[C@H](O)C[C@H]2[C@H](O)/C=C/C(=O)O1 :: > 100 µM
O=C(/C=C/c1ccccc1)Nc1ccccc1SCCCCl :: > 82.8 µM
CCC1(c2ccc(N3C(=O)c4cc(OC)c(OC)cc4C3=O)cc2)CCC(=O)NC1=O (stereo unspecified) :: > 10 µM
COC(=O)c1oc2c(C(=O)/C=C/c3ccc(OC)cc3)c(OCCN(C)C)ccc2c1C :: 19.3 µM
COc1nc(N)c(NC(C)=O)c(=O)n1C :: > 100 µM

Find the recorded TGI belonging to Cc1cc(C)c(-c2c(N)cc(Br)cc2Br)c(N)c1 and report it. 17 µM

What value of TGI has been reported for the following compound? COC(=O)[C@@]12CC(C(C)C)[C@H]3CC(C(=O)C=C1OC)[C@H]32 (stereo partly specified) > 100 µM

So what's the measured TGI for this one? Cn1c2ccccc2c(=O)c2c(O)cc3c(c21)C=CC(C)(C)O3 > 25 µM

Name the reported TGI value associated with the compound CCCCCC/C=C\CCCCCCCCCC1=C(CN2CCN(C)CC2)C(=O)C=C(OC)C1=O 15 µM

Any idea what its TGI is? The compound is Nc1ccccc1C(=O)CCC1C(=O)NC(=S)NC1=O > 100 µM

For the compound shown here, CSc1nc2c(c(=O)n1C)CN(C1CCCCC1)C(=O)C(c1ccccc1)N2 (stereo unspecified) , give the reported TGI. > 100 µM

// query TGI value for entry COc1cccc(Nc2nc3ccccc3c3occc23)c1 27.1 µM

Recorded TGI of COc1cc(C2(c3ncc[nH]3)SSSCC2O)ccc1O (stereo unspecified) , please. > 100 µM

Please give the measured TGI for this compound: O=C1O/C(=C/c2ccccc2)C(c2ccccc2)=C1O 82.7 µM

What value of TGI has been recorded for this entry: COC(=O)c1cc(NC(=O)Cc2c[nH]c3ccccc23)cn1C > 100 µM

Query: TGI; subject: CC(=O)OCC(=O)OC[C@H](OCc1ccccc1)[C@@H]1[C@H](OC(C)=O)C(=O)N1Cc1ccccc1 > 100 µM

Item under review: CC(=O)NCC1OC2COC(c3ccccc3)OC2C(NC(=O)c2ccccc2)C1OC(=O)c1ccccc1 (stereo unspecified) . Reported TGI? > 100 µM
